The measured values listed here are drawn from ChEMBL document CHEMBL1141632.

test-method-notes: Half life in rat at 2 mg/kg, iv and 10 mg/kg, po
Type: ADME, organism-based
applied-conditions: in vivo
measured-attribute: half-life (min)
Answers are plain numbers, in min.

Consider the compound CCc1ccc(-c2c(-c3c[nH]c(C)n3)c(=O)[nH]c3ccc(C#N)cc23)cc1 and give its measured half-life. 64

====

test-method-notes: Volume of distribution in rat at 2 mg/kg, iv and 10 mg/kg, po
Format: ADME, organism-based
applied-conditions: in vivo
measured-attribute: Vd (L/kg)
One number for each entry, in L/kg.

Consider the compound CCc1ccc(-c2c(-c3c[nH]c(C)n3)c(=O)[nH]c3ccc(C#N)cc23)cc1 and give its measured Vd. 8.6

====

test-method-notes: Oral bioavailability in rat at 10 mg/kg
Assay type: ADME, organism-based
applied-conditions: in vivo
measured-attribute: bioavailability (%)
Give bare numbers, in %.

Consider the compound CCc1ccc(-c2c(-c3c[nH]c(C)n3)c(=O)[nH]c3ccc(C#N)cc23)cc1 and give its measured bioavailability. 56

====

assayed-target: Receptor-type tyrosine-protein kinase FLT3 (Homo sapiens)
Sequence (P36888 whole entry): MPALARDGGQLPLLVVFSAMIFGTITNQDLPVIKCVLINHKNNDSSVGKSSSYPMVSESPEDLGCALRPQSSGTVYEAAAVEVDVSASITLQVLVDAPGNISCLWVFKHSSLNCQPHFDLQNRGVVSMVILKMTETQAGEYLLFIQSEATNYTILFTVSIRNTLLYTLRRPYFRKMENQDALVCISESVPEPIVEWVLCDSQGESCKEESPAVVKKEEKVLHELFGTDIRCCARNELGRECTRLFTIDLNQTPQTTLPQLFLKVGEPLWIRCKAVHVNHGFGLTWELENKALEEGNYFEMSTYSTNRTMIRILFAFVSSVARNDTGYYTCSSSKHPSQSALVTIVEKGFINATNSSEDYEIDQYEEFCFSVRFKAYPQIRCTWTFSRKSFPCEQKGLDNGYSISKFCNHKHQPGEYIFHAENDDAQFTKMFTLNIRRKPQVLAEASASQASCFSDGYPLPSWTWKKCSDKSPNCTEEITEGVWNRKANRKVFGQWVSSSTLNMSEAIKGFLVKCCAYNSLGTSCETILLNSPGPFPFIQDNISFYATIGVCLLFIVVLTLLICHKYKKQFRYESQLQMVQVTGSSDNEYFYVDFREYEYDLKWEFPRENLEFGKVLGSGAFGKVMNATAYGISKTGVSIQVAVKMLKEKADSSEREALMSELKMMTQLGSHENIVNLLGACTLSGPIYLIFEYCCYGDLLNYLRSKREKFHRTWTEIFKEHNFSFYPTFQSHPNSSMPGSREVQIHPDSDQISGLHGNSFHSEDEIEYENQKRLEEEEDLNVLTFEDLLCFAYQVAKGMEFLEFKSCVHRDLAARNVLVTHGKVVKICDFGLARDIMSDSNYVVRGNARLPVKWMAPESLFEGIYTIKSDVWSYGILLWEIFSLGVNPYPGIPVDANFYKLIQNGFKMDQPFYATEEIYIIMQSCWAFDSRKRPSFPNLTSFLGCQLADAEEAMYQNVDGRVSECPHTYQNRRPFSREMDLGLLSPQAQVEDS
measured-attribute: pIC50
One number for each entry, as −log10 of the molar value.

Consider the compound CCc1ccc(-c2c(-c3c[nH]c(C)n3)c(=O)[nH]c3ccc(C#N)cc23)cc1 and give its measured pIC50. 7.33
